B1: tRNA (parent)
chain: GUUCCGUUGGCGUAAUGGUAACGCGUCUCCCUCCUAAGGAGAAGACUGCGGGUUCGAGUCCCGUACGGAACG

# Variants of: B1
# run_description: yeast fitness relative to wild type (ratio to wild type); higher = fitter; tRNA-Arg(CCU), competitive growth, 37 C, YPD
Variants at the floor of the assay were thinned out.
endpoint: yeast fitness

1. C5U A37U A42U A69U    ≤ 0.5
2. U16G C46A G56C A70G    ≤ 0.5
3. C5U G18A A40U U47C G68A    0.617

Okay, next one:
Exam item: // lookup yeast fitness for U3C C31U G50A G58C C66U
Marked response: ≤ 0.5
